# Tested On: T1, neuropeptide Y5 receptor (Homo sapiens (Human)), Q15761
# T1 chain: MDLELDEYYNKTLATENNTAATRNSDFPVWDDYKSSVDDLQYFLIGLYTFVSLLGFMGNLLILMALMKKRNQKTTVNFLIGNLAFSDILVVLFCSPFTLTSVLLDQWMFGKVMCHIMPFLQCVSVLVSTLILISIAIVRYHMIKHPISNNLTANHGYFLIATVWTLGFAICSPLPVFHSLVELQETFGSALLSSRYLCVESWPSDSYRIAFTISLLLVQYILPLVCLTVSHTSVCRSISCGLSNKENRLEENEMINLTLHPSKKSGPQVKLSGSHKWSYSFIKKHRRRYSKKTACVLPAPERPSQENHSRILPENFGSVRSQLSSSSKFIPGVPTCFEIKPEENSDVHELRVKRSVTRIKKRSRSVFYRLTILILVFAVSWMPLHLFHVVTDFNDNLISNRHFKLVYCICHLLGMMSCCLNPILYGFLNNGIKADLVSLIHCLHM
# Test Details: radioligand competition, [125I]-hPYY, Y5/CHO-K1 membranes
Attribute Measured: Y5RBA (nM)

// query Fill in Y5RBA for record YPIRPEAPGEDASPEELAQYAADLRRYINMLTRQRY (modifications not checked) [SEQ ID NO 332]
// result 1

(a) APLEPVYPGDNATPEQMNRYYASLRHFLNLVTRQRY (modifications not checked) [SEQ ID NO 288]
(b) YPIKPEAPGEDASPEELAQYAADLKRYINMLTRQRY (modifications not checked) [SEQ ID NO 321]
// query Which of the two items, a and b , has the greater recorded Y5RBA? Returns: label corresponding to the selected item.
// result b
(b: 5.6 nM, a: 1.1 nM)
